Test: in vitro
Details: rat, intestinal microsomes, pH 7.4

{"SMILES": "C[C@@H]1CCN(C(=O)CC#N)C[C@@H]1N(C)c1ncnc2[nH]ccc12", "microsomal CLint (µL/min/mg)": 8.94}

* * *

Target: rat intestinal microsomes
Conditions: read-out: Apparent Ki of voriconazole for the inhibition of tofacitinib metabolism; intestinal microsomes, non-competitive model, n = 3

{"COMPOUND": "C[C@@H](c1ncncc1F)[C@](O)(Cn1cncn1)c1ccc(F)cc1F [voriconazole, Voriconazole]", "UNIT_LABEL": "µM", "Ki": 26.2}

* * *

Assay: in vivo
Conditions: Sprague-Dawley, rat, po, 20 mg/kg, Cmax

{"SMILES": "C[C@@H](c1ncncc1F)[C@](O)(Cn1cncn1)c1ccc(F)cc1F", "UNIT_LABEL": "ng/mL", "Cmax": 7820}

* * *

Assay: in vivo
Conditions: Sprague-Dawley, rat, po, 20 mg/kg, Tmax
The compounds listed here are annotated with their Tmax.
PROPERTY_LABEL: Tmax (h)

{"COMPOUND": "C[C@@H]1CCN(C(=O)CC#N)C[C@@H]1N(C)c1ncnc2[nH]ccc12 [tofacitinib, Tofacitinib]", "UNIT_LABEL": "h", "ASSAY_VALUE": 1.46}
{"COMPOUND": "C[C@@H](c1ncncc1F)[C@](O)(Cn1cncn1)c1ccc(F)cc1F [voriconazole, Voriconazole]", "UNIT_LABEL": "h", "ASSAY_VALUE": 4.38}

* * *

Test: in vitro
Conditions: rat, liver microsomes, pH 7.4

{"SMILES": "C[C@@H]1CCN(C(=O)CC#N)C[C@@H]1N(C)c1ncnc2[nH]ccc12", "UNIT_LABEL": "µL/min/mg", "microsomal CLint": 23.3}
